Recorded Fold induction by entry
test system: MDA-MB-231 tumor cells expressing PD-L1; assay: Rescue of mouse splenocyte proliferation inhibited by MDA-MB-231 tumor cells expressing PD-L1 (CFSE based assay); type: cell-based; conditions: % splenocyte proliferation / % background proliferation; background 1.0, stimulated 3.7
observation type: Fold induction

INSERT INTO results (molecule, assay_target, observation_type, value_measured) VALUES
  ('C[C@H](NC(=O)N[C@@H](CC(N)=O)C(=O)NNC(=O)[C@@H](N)CO)C(=O)O', 'MDA-MB-231 tumor cells expressing PD-L1', 'Fold induction', 3),
  ('CC(O)[C@H](NC(=O)N[C@@H](CC(N)=O)C(=O)NNC(=O)[C@@H](N)CO)C(=O)O (some centres unmarked)', 'MDA-MB-231 tumor cells expressing PD-L1', 'Fold induction', 3.4),
  ('COC(=O)[C@@H](NC(=O)N[C@@H](CC(N)=O)C(=O)NNC(=O)[C@@H](N)CO)C(C)O (some centres unmarked)', 'MDA-MB-231 tumor cells expressing PD-L1', 'Fold induction', 3.4),
  ('CC(O)[C@H](N)C(=O)N[C@@H](CC(N)=O)C(=O)NNC(=O)[C@@H](N)CO (some centres unmarked)', 'MDA-MB-231 tumor cells expressing PD-L1', 'Fold induction', 3),
  ('CC(O)[C@@H](N)C(=O)NNC(=O)[C@@H](CC(N)=O)NC(=O)N[C@H](CO)C(=O)O (some centres unmarked)', 'MDA-MB-231 tumor cells expressing PD-L1', 'Fold induction', 3.4);

* * *

molecular target: recombinant human PDL-1 (Homo sapiens, UniProt Q9NZQ7); construct: Fc (Fc chimera); assay: Rescue of mouse splenocyte proliferation inhibited by recombinant human PDL-1 (CFSE, FACS); settings: mouse splenocytes, anti-CD3/CD28 stimulated, rh-PDL-1 100 ng/ml, 72 hrs
Sequence (Q9NZQ7 with tags, fused parts or gaps limits assumed): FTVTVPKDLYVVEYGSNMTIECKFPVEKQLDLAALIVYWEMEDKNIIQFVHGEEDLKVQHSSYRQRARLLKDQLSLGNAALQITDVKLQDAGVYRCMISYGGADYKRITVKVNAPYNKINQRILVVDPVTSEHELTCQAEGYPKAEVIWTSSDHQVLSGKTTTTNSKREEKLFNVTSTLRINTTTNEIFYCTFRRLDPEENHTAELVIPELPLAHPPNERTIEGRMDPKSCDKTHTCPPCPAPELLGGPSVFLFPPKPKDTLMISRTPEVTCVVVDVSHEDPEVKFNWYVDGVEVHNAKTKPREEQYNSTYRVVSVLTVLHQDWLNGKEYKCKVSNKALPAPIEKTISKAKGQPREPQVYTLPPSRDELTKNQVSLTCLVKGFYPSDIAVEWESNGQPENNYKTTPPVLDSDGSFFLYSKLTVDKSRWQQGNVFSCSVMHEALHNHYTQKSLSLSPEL
pEC50: −log10 of the molar value.
observation type: pEC50

INSERT INTO results (molecule, value_measured) VALUES
  ('CC(O)[C@@H](N)C(=O)NNC(=O)[C@@H](CC(N)=O)NC(=O)N[C@H](CO)C(=O)O (stereo partly drawn)', 7.46),
  ('CC(O)[C@H](NC(=O)N[C@@H](CC(N)=O)C(=O)NNC(=O)[C@@H](N)CO)C(=O)O (stereo partly drawn)', 7.64),
  ('CC(O)[C@H](N)C(=O)NNC(=O)[C@H](CC(N)=O)NC(=O)N[C@@H](CO)C(=O)O (stereo partly drawn)', 7.66);

* * *

biological target: recombinant mouse PDL-2 (Mus musculus); construct: purchased R&D Systems 1022-PL-100; experiment: Rescue of splenocyte effector function, IFN-γ release by ELISA, recombinant mouse PDL-2; assay type: cell-based; settings: mouse splenocytes, anti-CD3/CD28, PDL-2 100 ng/ml, 72 hrs, read-out: EC50 (nM), IFN-γ release, in presence of recombinant mouse PDL-2
Sequence (Q9WUL5 with tags, fused parts or gaps limits assumed): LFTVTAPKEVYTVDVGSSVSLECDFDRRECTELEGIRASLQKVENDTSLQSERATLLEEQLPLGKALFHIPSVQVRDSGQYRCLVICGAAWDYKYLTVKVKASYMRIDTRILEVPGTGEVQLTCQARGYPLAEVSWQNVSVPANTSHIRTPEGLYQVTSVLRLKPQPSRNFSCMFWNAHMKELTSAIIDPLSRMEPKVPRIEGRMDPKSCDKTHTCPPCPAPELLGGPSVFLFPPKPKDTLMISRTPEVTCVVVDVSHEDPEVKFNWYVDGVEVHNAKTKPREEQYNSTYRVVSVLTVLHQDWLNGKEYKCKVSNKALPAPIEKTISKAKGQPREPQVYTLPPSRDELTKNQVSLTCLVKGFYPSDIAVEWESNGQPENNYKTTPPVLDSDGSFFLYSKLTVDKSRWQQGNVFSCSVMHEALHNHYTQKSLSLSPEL
observation type: EC50 (nM)

INSERT INTO measurements (compound, value_measured) VALUES
  ('CC(O)[C@H](NC(=O)N[C@@H](CC(N)=O)C(=O)NNC(=O)[C@@H](N)CO)C(=O)O (stereo partly drawn)', 40),
  ('CC(O)[C@@H](N)C(=O)NNC(=O)[C@@H](CC(N)=O)NC(=O)N[C@H](CO)C(=O)O (stereo partly drawn)', 30),
  ('CC(O)[C@H](N)C(=O)NNC(=O)[C@H](CC(N)=O)NC(=O)N[C@@H](CO)C(=O)O (stereo partly drawn)', 62);
